Tested on: KB
ASSAY PROTOCOL: Cytotoxicity against human KB cells
Type: functional
CONDITION INFO: read-out: ED50 (the source's name)
Recorded measurements of pEC50, one per entry
Quick note: pEC50 values are minus log10 of concentrations in mol/L.

Some entries whose results are on file:
COMPOUND	ASSAYED SYSTEM	pEC50
C=C1C(=O)O[C@H]2[C@H]1[C@H](OC(=O)/C(C)=C\C)C[C@]1(CO1)[C@@H]1[C@H](OC(C)=O)C=C(C)[C@]21O [EUPAROTIN ACETATE]	KB	6.28
C=C1C(=O)O[C@H]2/C=C(\C)C(=O)C/C=C(/C)C[C@H](OC(=O)/C(C)=C\C)[C@@H]12 [DEHYDRONOBILIN]	KB	5.57
C=C1C(=O)O[C@H]2C[C@H](C)[C@@H]3CC(=O)C(C)=C3C[C@H]12 [XERANTOLIDE]	KB	5.21
C=C1C(=O)O[C@@H]2/C=C(/C)[C@@H](O)C[C@H]3O[C@]3(C)C[C@@H](OC(=O)/C(C)=C\C)[C@@H]12	KB	6.00
C=C1C(=O)O[C@@H]2[C@H]1CC[C@H](C)[C@]1(O)C=CC(=O)[C@@]21C	KB	5.89
C=C1C(=O)O[C@H]2C[C@@H](C)[C@@H]3C=CC(=O)[C@@]3(C)[C@H](O)[C@H]12	KB	5.90
C=C1C(=O)O[C@@H]2/C=C3\CCC4OC4(C[C@H](OC(=O)C(C)C)[C@@H]12)C(O)OC3 (some centres undefined)	KB	5.39
C=C1C(=O)O[C@@H]2/C=C(/CO)[C@@H](OC(C)=O)C[C@H](O)/C(C)=C\[C@@H](OC(=O)/C(C)=C/C)[C@@H]12	KB	5.06

The compound listed as C=C1[C@@H]2[C@H]3OC(=O)C(=C)[C@@H]3CCC(=C)[C@@H]2C[C@@H]1O[C@@H]1O[C@H](COC(C)=O)[C@@H](OC(C)=O)[C@H](OC(C)=O)[C@H]1OC(C)=O [VERNOFLEXUOSIDE TETRA ACETYL] has a reported pEC50 of 5.06

The compound listed as "C=C1[C@@H]2[C@H]3OC(=O)C(=C)[C@@H]3CCC(=C)[C@H]2C[C@@H]1OC(=O)C=C(C)C" has a reported pEC50 of 5.37

The compound listed as "C=C1C(=O)O[C@@H]2[C@H]3C(CO)=CC(=O)C3=C(C)CC[C@@H]12" has a reported pEC50 of 5.51

The compound listed as C=C[C@@]12COC(=O)C(=C)[C@@H]1[C@H]1OC(=O)C(=C)[C@@H]1[C@@H](O)C2 [VERNOLEPIN] has a reported pEC50 of 5.19

The compound listed as C=C1C(=O)O[C@H]2C[C@@]3(CO3)[C@@H]3C[C@H](OC(C)=O)C(=C)[C@]3(O)C[C@H]12 [ARCTOLIDE] has a reported pEC50 of 4.54

The compound listed as "C=C1C(=O)O[C@@H]2/C=C(/C)[C@@]3(O)C=C[C@@](C)(C[C@@H](OC(=O)/C(=C\C)COC(C)=O)[C@@H]12)O3" has a reported pEC50 of 5.41

---

Recorded measurements of EC50, one per entry
Test system: KB
ASSAY PROTOCOL: Cytotoxicity against human KB cells
Type: functional
CONDITION INFO: read-out: ED50 (the source's name)

Some entries whose results are on file:
>>> df
                                   compound  assayed_system      val
0  C=C1C(=O)O[C@H]2C/C(C)=C/C[C@@H](OC(C)=O)/C(C)=C/[C@@H](OC(C)=O)[C@@H]12 [CHAMMISSONIN DIACETATE]              KB  6120 nM
1  C=C1C(=O)O[C@@H]2/C=C(\C)[C@@H](OC(C)=O)C/C=C(/C)C(O)[C@@H](OC(=O)/C(C)=C\C)[C@@H]12 (stereo partly drawn)              KB   270 nM

# "C=C1C(=O)O[C@H]2[C@H]1[C@H](OC(=O)/C(C)=C\C)C[C@](O)(CCl)[C@@H]1[C@H](O)C=C(C)[C@]21O" with KB: EC50 is 510 nM
